- System: HI-HeLa cells
- Method summary: Cytotoxicity in mock-infected HI-HeLa cells (antirhinoviral assay, XTT)
- Type: cell-based
Assay readout: CC50

Observed CC50, HI-HeLa cells, CCOC(=O)/C=C/[C@H](CCC(N)=O)NC(=O)[C@H](Cc1ccccc1)NC(=O)[C@@H](NC(=O)OCc1ccccc1)C(C)C [Compound 146] : > 320 µM

====

- Target: Recombinant Rhinovirus 3C protease (RVP) serotype 2 (Human rhinovirus 2, UniProt P04936)
- Construct: Recombinant Rhinovirus 3C proteases from serotypes 14, 16, 2 or 89; made in house
- Sequence (P04936 1508-1690): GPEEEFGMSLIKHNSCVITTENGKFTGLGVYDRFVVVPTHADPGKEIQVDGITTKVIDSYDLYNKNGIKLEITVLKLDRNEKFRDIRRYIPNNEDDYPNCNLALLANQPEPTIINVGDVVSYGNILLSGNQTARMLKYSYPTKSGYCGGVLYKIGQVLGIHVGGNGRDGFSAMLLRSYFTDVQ
- Method summary: Inhibition of Rhinovirus Protease (fluorescence resonance energy transfer assay), serotype 2
- Assay type: biochemical, human rhinovirus (HRV)
- Condition set: progress curves in enzyme start experiments
Assay readout: kobs/I

Compound	Assay readout	Value reported
CCOC(=O)/C=C/[C@H](CCC(N)=O)NC(=O)[C@H](Cc1ccccc1)NC(=O)[C@H](C[S+]([O-])Cc1ccccc1)NC(=O)OCc1ccccc1 (some centres unmarked)	kobs/I	3,500 M-1 sec-1
CCC[C@H](NC(=O)[C@H](CC(C)C)NC(=O)OCc1ccccc1)C(=O)N[C@H](/C=C/C(=O)OCC)CCC(N)=O	kobs/I	643 M⁻¹ s⁻¹
CCOC(=O)/C=C/[C@H](CCC(N)=O)NC(=O)[C@H](Cc1ccc(OC)cc1)NC(=O)[C@H](CC(C)C)NC(=O)OCc1ccccc1	kobs/I	1,106 M-1 sec-1
CCOC(=O)/C=C/[C@H](CCC(N)=O)NC(=O)[C@H](Cc1ccccc1)NC(=O)[C@H](CSCc1ccccc1)NC(=O)OCc1ccccc1	kobs/I	5,600 M-1 sec-1

// kobs/I lookup, compound = CCOC(=O)/C=C/[C@H](CCC(N)=O)NC(=O)[C@H](Cc1ccccc1)NC(=O)[C@H](CC(C)C)NC(=O)SC(C)C , result: 8,400 M-1 sec-1

====

- Target: Recombinant Rhinovirus 3C protease (RVP) serotype-14 (Human rhinovirus 14)
- Construct: Recombinant Rhinovirus 3C proteases from serotypes 14, 16, 2 or 89; made in house
- Sequence (P03303 1538-1719): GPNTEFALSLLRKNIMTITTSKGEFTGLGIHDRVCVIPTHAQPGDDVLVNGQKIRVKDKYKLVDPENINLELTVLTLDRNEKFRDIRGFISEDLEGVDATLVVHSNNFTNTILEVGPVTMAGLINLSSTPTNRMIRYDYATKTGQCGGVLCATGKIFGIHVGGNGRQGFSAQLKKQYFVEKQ
- Method summary: Inhibition of Rhinovirus Protease (fluorescence resonance energy transfer assay), serotype 14
- Assay type: biochemical, human rhinovirus (HRV)
- Condition set: RVP serotype-14; progress curves in enzyme start experiments
The following compounds are shown together with reported log10(kobs/I) values.
Log scale reminder: kobs/I in M⁻¹ s⁻¹, then log10 taken.

Line notation	log10(kobs/I)
CCNC(=O)/C=C/[C@H](CCC(N)=O)NC(=O)[C@H](Cc1ccccc1)NC(=O)[C@H](CC(C)C)NC(=O)OCc1ccccc1	2.54

// log10(kobs/I) lookup, compound = CC(C)C[C@H](NC(=O)OCc1ccccc1)C(=O)N[C@@H](Cc1ccccc1)C(=O)N[C@H](/C=C/C(=O)O)CCC(N)=O , result: 1.43

// log10(kobs/I) lookup, compound = CC(C)C[C@H](NC(=O)OCc1ccccc1)C(=O)N[C@@H](Cc1ccccc1)C(=O)N[C@H](/C=C/C(=O)N1CCc2cc(Cl)ccc21)CCC(N)=O , result: 2.65

// log10(kobs/I) lookup, compound = CC(C)C[C@H](NC(=O)OCc1ccccc1)C(=O)N[C@@H](Cc1ccccc1)C(=O)N[C@H](/C=C/C(=O)N(C)c1ccccc1)CCC(N)=O , result: 2.76

// log10(kobs/I) lookup, compound = CCOC(=O)/C=C/[C@H](CCC(N)=O)NC(=O)[C@H](Cc1ccccc1)NS(=O)(=O)c1ccccc1 , result: 1.53

Where do these numbers come from? They come from patent US6362166B1.
